Test system: COLO-684 (Endometrial Carcinoma)
Assay: Bliss excess, mean over the matrix (fraction); higher = more synergy;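 also: after 72 h of two-drug dosing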
Measured Bliss excess accompanies every entry in the list below.
Write the number on its own, no unit after it.

Please review the following examples before continuing.
Cc1cc2ncnn2cc1Nc1ncc2c(n1)n(C1CCOCC1)c(=O)n2C [AZD7648] + CCN(CCO)CCCOc1ccc2c(Nc3cc(CC(=O)Nc4cccc(F)c4)[nH]n3)ncnc2c1 [AZD2811] (first compound max 10 µM, 7x7, partner max 1 µM): 0.0234
C[C@@H](Oc1cc(-c2cnn(C3CCNCC3)c2)cnc1N)c1c(Cl)ccc(F)c1Cl [Crizotinib] + CC1=C(C(=CC=C1)Cl)NC(=O)C2=CN=C(S2)NC3=CC(=NC(=N3)C)N4CCN(CC4)CCO [Dasatinib] (first compound max 10 µM, 7x7, partner max 2 µM): -0.049
CN(CCO)CC[C@H](CSc1ccccc1)Nc1ccc(S(=O)(=O)NC(=O)c2ccc(N3CCC([C@@H](O)c4ccccc4-c4ccc(Cl)cc4)CC3)cc2)cc1S(=O)(=O)C(F)(F)F [AZD4320] + CC(=O)O[C@H]1C(=O)[C@@]2(C)[C@H]([C@H](OC(=O)c3ccccc3)[C@]3(O)C[C@H](OC(=O)[C@H](O)[C@@H](NC(=O)c4ccccc4)c4ccccc4)C(C)=C1C3(C)C)[C@]1(OC(C)=O)CO[C@@H]1C[C@@H]2O [Paclitaxel] (first compound max 1 µM, 7x7, partner max 3 µM): 0.0345

Hello, please tell me recorded Bliss excess for this one: CCN(CCO)CCCOc1ccc2c(Nc3cc(CC(=O)Nc4cccc(F)c4)[nH]n3)ncnc2c1 [AZD2811] + C[C@@H]1COCCN1C2=NC(=NC(=C2)C3(CC3)[S@](=N)(=O)C)C4=C5C=CNC5=NC=C4 [AZD6738] (first compound max 1 µM, 7x7, partner max 10 µM)
-0.0913

Hello, please tell me recorded Bliss excess for this one: CS(=O)(=O)CCNCc1ccc(-c2ccc3ncnc(Nc4ccc(OCc5cccc(F)c5)c(Cl)c4)c3c2)o1 [Lapatinib] + C[C@@H](Oc1cc(-c2cnn(C3CCNCC3)c2)cnc1N)c1c(Cl)ccc(F)c1Cl [Crizotinib] (first compound max 10 µM, 7x7, partner max 10 µM)
-0.0364

Hello, please tell me recorded Bliss excess for this one: C=CCn1c(=O)c2cnc(Nc3ccc(N4CCN(C)CC4)cc3)nc2n1-c1cccc(C(C)(C)O)n1 [AZD1775] + O=C(c1cc(Cc2n[nH]c(=O)c3ccccc23)ccc1F)N1CCN(C(=O)C2CC2)CC1 [Olaparib] (first compound max 1 µM, partner max 10 µM)
-0.12

Hello, please tell me recorded Bliss excess for this one: C[C@@H]1COCCN1c1cc(C2([S@](C)(=N)=O)CC2)nc(-c2ccnc3[nH]ccc23)n1 [AZD6738] + C1CC(C1)(C(=O)[O-])C(=O)[O-].N.N.[Pt+2] [Carboplatin] (first compound max 10 µM, 7x7, partner max 10 µM)
-0.0356

* * *

System: RL95-2 (Endometrial Carcinoma)
Test: Bliss excess, mean over the matrix (fraction); higher = more synergy
Measured Bliss excess accompanies every entry in the list below.

NC1(C(=O)N[C@@H](CCO)c2ccc(Cl)cc2)CCN(c2ncnc3[nH]ccc23)CC1 [Capivasertib] + CC(=O)c1c(C)c2cnc(Nc3ccc(N4CCNCC4)cn3)nc2n(C2CCCC2)c1=O [Palbociclib] (first compound max 10 µM, 7x7, partner max 10 µM): 0.0215

For the next question, use this compound.
Output reported Bliss excess of the compound NC1(C(=O)N[C@@H](CCO)c2ccc(Cl)cc2)CCN(c2ncnc3[nH]ccc23)CC1 [Capivasertib] + COc1nnc2ccc(N3CCC(c4ccc(OCCN5CCN(C)C(=O)[C@H]5C)cc4)CC3)nn12 [AZD5153] (first compound max 10 µM, 7x7, partner max 1 µM) on RL95-2 (Endometrial Carcinoma).
-0.002

* * *

Test system: LAMA-84 (Chronic Myelogenous Leukemia)
Assay: Bliss excess, mean over the matrix (fraction); higher = more synergy
Returns one of yes (1) or no (0); yes (1) when Bliss excess is >= -0.03.

Past entries and their recorded results:
CCN(CCO)CCCOc1ccc2c(Nc3cc(CC(=O)Nc4cccc(F)c4)[nH]n3)ncnc2c1 [AZD2811] + C=CCn1c(=O)c2cnc(Nc3ccc(N4CCN(C)CC4)cc3)nc2n1-c1cccc(C(C)(C)O)n1 [AZD1775] (first compound max 1 µM, partner max 1 µM): yes (1)
Cc1c2c(nn1C)CSCc1cc(n(C)n1)CSc1cc(c3ccccc3c1)OCCCc1c(C(=O)O)n(C)c3c-2c(Cl)ccc13 [AZD5991] + CCN(CCO)CCCOc1ccc2c(Nc3cc(CC(=O)Nc4cccc(F)c4)[nH]n3)ncnc2c1 [AZD2811] (first compound max 1 µM, 7x7, partner max 1 µM): yes (1)
O=C(c1cc(Cc2n[nH]c(=O)c3ccccc23)ccc1F)N1CCN(C(=O)C2CC2)CC1 [Olaparib] + Cc1c2c(nn1C)CSCc1cc(n(C)n1)CSc1cc(c3ccccc3c1)OCCCc1c(C(=O)O)n(C)c3c-2c(Cl)ccc13 [AZD5991] (first compound max 10 µM, 7x7, partner max 1 µM): yes (1)
CC1(C)CCC(CN2CCN(c3ccc(C(=O)NS(=O)(=O)c4ccc(NCC5CCOCC5)c([N+](=O)[O-])c4)c(Oc4cnc5[nH]ccc5c4)c3)CC2)=C(c2ccc(Cl)cc2)C1 [Venetoclax] + CCN(CCO)CCCOc1ccc2c(Nc3cc(CC(=O)Nc4cccc(F)c4)[nH]n3)ncnc2c1 [AZD2811] (first compound max 1 µM, 7x7, partner max 1 µM): yes (1)
Cc1c2c(nn1C)CSCc1cc(n(C)n1)CSc1cc(c3ccccc3c1)OCCCc1c(C(=O)O)n(C)c3c-2c(Cl)ccc13 [AZD5991] + C1CN(CCC1(C(=O)N[C@@H](CCO)C2=CC=C(C=C2)Cl)N)C3=NC=NC4=C3C=CN4 [Capivasertib] (first compound max 1 µM, 7x7, partner max 3 µM): yes (1)
COc1cc2ncnc(Nc3ccc(F)c(Cl)c3)c2cc1OCCCN1CCOCC1 [Gefitinib] + CC(C)n1c(=O)n(C)c2cnc3cc(F)c(-c4ccc(OCCCN5CCCCC5)nc4)cc3c21 [AZD1390] (first compound max 10 µM, 7x7, partner max 0.3 µM): no (0)
CC1(C)CCC(CN2CCN(c3ccc(C(=O)NS(=O)(=O)c4ccc(NCC5CCOCC5)c([N+](=O)[O-])c4)c(Oc4cnc5[nH]ccc5c4)c3)CC2)=C(c2ccc(Cl)cc2)C1 [Venetoclax] + C1CN(CCC1(C(=O)N[C@@H](CCO)C2=CC=C(C=C2)Cl)N)C3=NC=NC4=C3C=CN4 [Capivasertib] (first compound max 1 µM, 7x7, partner max 3 µM): no (0)
Cn1cnc2c(F)c(Nc3ccc(Br)cc3Cl)c(C(=O)NOCCO)cc21 [Selumetinib] + CC(C)n1c(=O)n(C)c2cnc3cc(F)c(-c4ccc(OCCCN5CCCCC5)nc4)cc3c21 [AZD1390] (first compound max 10 µM, 7x7, partner max 0.3 µM): no (0)

Could you verify whether the entry COc1nnc2ccc(N3CCC(c4ccc(OCCN5CCN(C)C(=O)[C@H]5C)cc4)CC3)nn12 [AZD5153] + CC1(C)CCC(CN2CCN(c3ccc(C(=O)NS(=O)(=O)c4ccc(NCC5CCOCC5)c([N+](=O)[O-])c4)c(Oc4cnc5[nH]ccc5c4)c3)CC2)=C(c2ccc(Cl)cc2)C1 [Venetoclax] (first compound max 1 µM, 7x7, partner max 1 µM) shows Bliss excess of no less than -0.03?
no (0)

Could you verify whether the entry N#Cc1cnc(Nc2cc(NC[C@H]3CNCCO3)c(C(F)(F)F)cn2)cn1 [SRA737] + CCc1c2c(nc3ccc(O)cc13)-c1cc3c(c(=O)n1C2)COC(=O)[C@]3(O)CC [SN-38] (first compound max 10 µM, 7x7, partner max 0.3 µM) shows Bliss excess of no less than -0.03?
yes (1)

* * *

Tested on: AsPC-1 (Pancreatic Carcinoma)
Experiment: Bliss excess, mean over the matrix (fraction); higher = more synergy
quantity-measured: Bliss excess

Please review the following examples before continuing.
COc1nnc2ccc(N3CCC(c4ccc(OCCN5CCN(C)C(=O)[C@H]5C)cc4)CC3)nn12 [AZD5153] + CN(CC[C@H](CSC1=CC=CC=C1)NC2=C(C=C(C=C2)S(=O)(=O)NC(=O)C3=CC=C(C=C3)N4CCC(CC4)[C@H](C5=CC=CC=C5C6=CC=C(C=C6)Cl)O)S(=O)(=O)C(F)(F)F)CCO [AZD4320] (first compound max 1 µM, 7x7, partner max 1 µM): -0.08
CCN(CCO)CCCOc1ccc2c(Nc3cc(CC(=O)Nc4cccc(F)c4)[nH]n3)ncnc2c1 [AZD2811] + C=CCn1c(=O)c2cnc(Nc3ccc(N4CCN(C)CC4)cc3)nc2n1-c1cccc(C(C)(C)O)n1 [AZD1775] (first compound max 1 µM, partner max 1 µM): -0.0738
NC1(C(=O)N[C@@H](CCO)c2ccc(Cl)cc2)CCN(c2ncnc3[nH]ccc23)CC1 [Capivasertib] + C[C@@H]1COCCN1C2=NC(=NC(=C2)C3(CC3)[S@](=N)(=O)C)C4=C5C=CNC5=NC=C4 [AZD6738] (first compound max 10 µM, 7x7, partner max 10 µM): -0.0359

Hello, please tell me recorded Bliss excess for this one: COc1nnc2ccc(N3CCC(c4ccc(OCCN5CCN(C)C(=O)[C@H]5C)cc4)CC3)nn12 [AZD5153] + CC1(C)CCC(CN2CCN(c3ccc(C(=O)NS(=O)(=O)c4ccc(NCC5CCOCC5)c([N+](=O)[O-])c4)c(Oc4cnc5[nH]ccc5c4)c3)CC2)=C(c2ccc(Cl)cc2)C1 [Venetoclax] (first compound max 1 µM, 7x7, partner max 1 µM)
-0.0807

Hello, please tell me recorded Bliss excess for this one: COc1nnc2ccc(N3CCC(c4ccc(OCCN5CCN(C)C(=O)[C@H]5C)cc4)CC3)nn12 [AZD5153] + C[C@@H]1COCCN1C2=NC(=NC(=C2)C3(CC3)[S@](=N)(=O)C)C4=C5C=CNC5=NC=C4 [AZD6738] (first compound max 1 µM, 7x7, partner max 10 µM)
0.0778

Hello, please tell me recorded Bliss excess for this one: CC1(C)CCC(CN2CCN(c3ccc(C(=O)NS(=O)(=O)c4ccc(NCC5CCOCC5)c([N+](=O)[O-])c4)c(Oc4cnc5[nH]ccc5c4)c3)CC2)=C(c2ccc(Cl)cc2)C1 [Venetoclax] + CCN(CCO)CCCOc1ccc2c(Nc3cc(CC(=O)Nc4cccc(F)c4)[nH]n3)ncnc2c1 [AZD2811] (first compound max 1 µM, 7x7, partner max 1 µM)
-0.0755
